system: PPARa:RXRa (NR concentration 270 nM, RXRa partner concentration 90 nM); assay: PBM binding z-score (relative to random genomic background probes); higher = stronger binding; sequences stand for … in GC…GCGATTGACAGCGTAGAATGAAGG
Is PBM binding z-score at least 2? Then 1. If not, -1.

# CHAIN SEQUENCE, CAT
records = [
    ("GCTGCTAGGTCAGGTTCGTCAGCTAACGGGTACG", -1),
    ("CCTATTAGTTGACCATAATGGCAACCGAAGCTCG", -1),
    ("CAGCCTAGGTCAGGGCCAGTGTAGGAGGAACGTT", 1),
    ("CGTCCAAGGTCAAAGGTCTGTGAAGAGATGACGG", 1),
    ("ATCTCTAGGTAACGTTCAGTGAAAGATCGATAGA", -1),
    ("CCAGACAGGGGAGAAGGTAACTCAGCCTCGATTA", -1),
    ("TATACAGGGTCAAAGGCCAGACTACGAATGTCGA", 1),
    ("AATACAGGGTCACTAGTCCAGAGTAGGTACGAAT", 1),
    ("TCTCGAAGGACACGAAGGTCAGAGCTTTCCAGAG", -1),
    ("TCGAGTATGTTAGGGGCATTCAGAATGGCGTCGA", -1),
    ("CAAACTAGGTCACATAGGTCAAAGTCCGTGCGTA", 1),
]

----------
tested on: PXR homodimer (NR concentration 270 nM); test: PBM binding z-score (relative to random genomic background probes); higher = stronger binding; sequences stand for … in GC…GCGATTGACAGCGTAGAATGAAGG
// map PBM binding z-score to label using lowest: < -0.2; middle: ≥ -0.2 and < 1; highest: ≥ 1

# CHAIN SEQUENCE, CAT
rows = [
    ("CAAGCTAGGTCACAGAGGTCAAAGTCCGTGCGTA", "highest"),
    ("TCTATTAGTTGATTAGGGCCACCGAAACAGCGGA", "middle"),
    ("ATTCAAAGTTCATCTAGGTAACGTAAGATATGCT", "highest"),
    ("ATACCAAGGTGATCGTCAGGTCGTTGATACTAAC", "middle"),
    ("CCGAGTAGGTTATCGGGCATTCAGGCAACGGTGA", "lowest"),
    ("CCTGCTAGGTCAATGGTCAGCTTAAGCAGCTCGC", "lowest"),
    ("CGAACTAGGTCCAGGACAGTGAATCTCCGCACGC", "lowest"),
    ("AGAATGAGGTTAAGATCAGGGCAACAGAATACAT", "middle"),
    ("AGTCAAAGTTCAACTAGGTAACGTAAGATATGCT", "highest"),
    ("ATACCAAGGTGATCGGGAGGTCGTTGATACTAAC", "highest"),
    ("CATACAGGGTCAGCCAGGCCAGAGTAGGGACGGC", "middle"),
    ("TCTTGTAGATCAACAGGTTAAGAAAGCTGGCCAA", "middle"),
    ("ATCTCTAGGTACCAAGTTCAGTGAAAGAGAGGAC", "highest"),
    ("GCTAGTTGGTCAGGAAAAGGTCACACACCGGTCG", "highest"),
    ("CCCACTGGGCCATCAGGTCATTGATATCAACGTT", "middle"),
    ("CATACAGGGTCAGGTAGGCCAGAGTAGGGACGGC", "middle"),
    ("CCTACTGGGCCAAGGTGATTGATCAGTCAAAGCA", "lowest"),
    ("ACATACGGGTCAACGAGGTTATAGCACGCGTATA", "highest"),
    ("AATACATGGTCATCGTAGGCCAGAGTACGCACAG", "middle"),
    ("AGTCAAAGTTCAGGACGAGGTATCGTAAAGCACG", "highest"),
    ("CCTGACGGGTCACTGACAGGTTATAGCATTTGGA", "middle"),
    ("CCTACTGGGCCTAAAAGGTCATTGATGCCGATAA", "highest"),
    ("CATAGCAGGCCAGGGTCACTCAAGCATTTCGCTT", "lowest"),
]

----------
Reported PBM binding z-score values follow for various sequences
system: RARa:RXR (NR concentration 270 nM, RXRa partner concentration 90 nM); assay: PBM binding z-score (relative to random genomic background probes); higher = stronger binding; sequences stand for … in GC…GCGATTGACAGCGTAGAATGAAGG
OBSERVATION TYPE: PBM binding z-score

# CHAIN SEQUENCE, REPORTED
measured = [
    ("TCGAGTAGCTTAGGGGCATTCAGAATGGCGTCGA", 0.217),
    ("CCTAGCAGGCCATGGTCACTCAAGCATTTCGCTT", -0.498),
    ("TGAATGAGGTAATAAGATCAGGGAACGTTGCAAA", -0.0415),
    ("AGAATGAGGTTACCAAAGATAAGGGAAACGCTTG", 1.68),
    ("CTCGAAAGGTCGGTTGACGTGAGTATACGGATAA", 1.5),
    ("ATCTCTAGGTAAAGATAGTTCAGTGTATGCAAAT", 1.11),
    ("TGATATAGGTAAAAGGTGAAAGTCGGTGTGGTAA", 2.78),
    ("AGAACGAGAGCAATGAGTTGATAGCACGGGTGGC", -0.818),
    ("TAGCCTAGGTCATTCAGGGGCCATTATAGAAAGC", 3.79),
    ("CGTCCTAGGTCAAGGTCAGTGAAAGAGACTCGAA", 4.02),
    ("CCTTACGGTTCACTCCAGGTTATAGCATCGGAGT", 2.25),
    ("CCGCCTGGGGCATAAGGTTACCATAAGCCAGCCC", 1.52),
    ("ACTATTAGTTGTCTTAGGGCAACCGATACGACGC", -0.0308),
    ("CCGCCTAGGTCAGGGCCAGTATAGGAGGAACGTT", 1.47),
    ("CTCGAAGGGTCGGTTGAGGTGAGTATACGGATAA", 1.32),
    ("CCAGACAGGTGATAAGGTAACTCAGCCTCGATTA", 0.472),
    ("TCTTGTAGATCAACACGAGGTTAAGAAAGATCGA", 1.27),
    ("TCTCGGAGGACACGGAGGTCAGAGCTTTCCAGAG", 2.29),
]

----------
system: RARg homodimer (NR concentration 270 nM); assay: PBM binding z-score (relative to random genomic background probes); higher = stronger binding; sequences stand for … in GC…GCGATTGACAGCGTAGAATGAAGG
Reported PBM binding z-score values follow for various sequences
OBSERVATION TYPE: PBM binding z-score

# CHAIN SEQUENCE, REPORTED
rows = [
    ("ATCTCTAGTTAACCAAGTTCAGTGAATGCCGAAC", 0.612),
    ("ATATGTAGGTTTGCTGGGGTCATTCAGACTAGGC", 2.31),
    ("TCTATTAGTTGAAGGGCAACCCACGAGTCCGTTT", 0.882),
    ("TCTATTATTTGAAGGGCAACCGACGAGTCCGTTT", 0.634),
]

----------
Reported PBM binding z-score values follow for various sequences
system: PPARg:RXRa 90nM:30nM, anti-RXR (NR concentration 90 nM, RXRa partner concentration 30 nM); test: PBM binding z-score (relative to random genomic background probes); higher = stronger binding; sequences stand for … in GC…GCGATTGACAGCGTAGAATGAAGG

# CHAIN SEQUENCE, PBM binding z-score
measured = [
    ("ATCGAAAGGTCGTGAGGTGAGAATACAGAAAGGC", 3.09),
    ("CGTCCAAGGTCATGGTCAGTGAAAGAGACTCGAA", 4.28),
    ("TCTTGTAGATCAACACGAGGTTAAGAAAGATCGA", 1.94),
    ("TCATATAGGTATAAGGTGAAAGTCGGTGTGGTAA", 5.68),
    ("CCTTGGAGGACAACAGGAGGTCAGAGCTGCCAGA", 0.077),
    ("ATCGAAAGGTCGACGAGGTGAGTTTACACCGTTT", 2.05),
    ("GCAGACAGGTGAAACGCAGGTAACTAAGGGTGGC", -0.453),
    ("TCTCGGAGGACACGATAGGTCAGAGCTCGACATC", 1.52),
    ("CCGAGTAGGTTATGGGGCATTCAGGCAACGGTGA", 3.91),
]

----------
test system: PPARg:RXRa IVT, anti-PPARg (NR concentration 270 nM, RXRa partner concentration 90 nM); assay: PBM binding z-score (relative to random genomic background probes); higher = stronger binding; sequences stand for … in GC…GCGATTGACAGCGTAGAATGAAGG
Is PBM binding z-score at least 4? Then TRUE. If not, FALSE.

# CHAIN SEQUENCE, TEST TARGET, CAT
data = [
    ("ATATGTAGGTTAAGGGTCATTCACGTTGGTTCGC", "PPARg:RXRa IVT, anti-PPARg (NR concentration 270 nM, RXRa partner concentration 90 nM)", "TRUE"),
    ("ACTCGGAGGACAAAGGTCAGAGCGACGCCAGTGA", "PPARg:RXRa IVT, anti-PPARg (NR concentration 270 nM, RXRa partner concentration 90 nM)", "FALSE"),
    ("GCTTGTAGATCAAGGTCAAGAAAGACTAAGCTAA", "PPARg:RXRa IVT, anti-PPARg (NR concentration 270 nM, RXRa partner concentration 90 nM)", "FALSE"),
    ("GTACCAAGGTGAATAGGTCGCTGATGAGTAGGCG", "PPARg:RXRa IVT, anti-PPARg (NR concentration 270 nM, RXRa partner concentration 90 nM)", "FALSE"),
    ("TAGCCTAGGTCAGATCGGCCCAGTATACGCTATA", "PPARg:RXRa IVT, anti-PPARg (NR concentration 270 nM, RXRa partner concentration 90 nM)", "FALSE"),
    ("TCGAGTAGGTTACCAATGGGGCATACAGCTTTCT", "PPARg:RXRa IVT, anti-PPARg (NR concentration 270 nM, RXRa partner concentration 90 nM)", "FALSE"),
    ("CCGACTGGGGCATAAGGTTACCACAAGCCAGCCC", "PPARg:RXRa IVT, anti-PPARg (NR concentration 270 nM, RXRa partner concentration 90 nM)", "FALSE"),
    ("TCTCGGAGGACACGCAGGTCAGAGCTTTCCAGAG", "PPARg:RXRa IVT, anti-PPARg (NR concentration 270 nM, RXRa partner concentration 90 nM)", "FALSE"),
    ("CGAACTAGGTCATCCAGGACAGTGATTACATTGA", "PPARg:RXRa IVT, anti-PPARg (NR concentration 270 nM, RXRa partner concentration 90 nM)", "TRUE"),
    ("ATATGTAGGGTAAGGGTCATTCAGGTTGGTTCGC", "PPARg:RXRa IVT, anti-PPARg (NR concentration 270 nM, RXRa partner concentration 90 nM)", "TRUE"),
    ("TCTAGCAGGCCAGAGGGTCACTCAGGAGGTACGG", "PPARg:RXRa IVT, anti-PPARg (NR concentration 270 nM, RXRa partner concentration 90 nM)", "FALSE"),
]
